Assign melting temperature to each entry below.
# Assay protocol: melting temperature (DSF); higher = more thermostable
Enter your answer as a number in C; do not include the unit.

Ask: Query: melting temperature; subject: ANPYERGPAPTKASIEATTGYFATAKVTVAKSSVSGFGGGTIYYPTSTTSGTFGAIALVPGFTNVQSAVAWLGPRVASQGFVVFIIDTNSVYDSPDSRGTQLLAALDYLTNTSTVKSRVDATRLGVMGYSMGGGGALSATKTRTSIKASVPMAPYHSTKTWTTVKTPTLIVTGQSDTTAPPASHGLAFYNSLSTSIDKAYMELKGAGHSAPTSANTTIAKYSISWFKRFIDDDTRYDQFLCPNPTDTTISSYKSTCNYS [DP082]
Reply: 61.9

Ask: Query: melting temperature; subject: AENPYERGPAPTTASIEALRGPFATAETTVSSLSVRGFGGGTIHYPTSTAEGTFGAVAVAPGYTASQSSLSWLGPRLASQGFVVFVIDTNSRYDQPASRGDQLLAALDYLTTSSSVRGRIDASRLGVMGHSMGGGGALEATKDRPSLQASIPLTPWNTTKTWSTVRTPTLVVGAEDDSVAPVRTHAEPFYEGLPSTLDKAYLELAGASHFAPNSSNTTIAKYSIAWLKRFVDDDTRYEQFLCPAPRGTAISEYRDTCPHP [TEP110]
Reply: 47.2

Ask: Query: melting temperature; subject: EEPASGYQRGPAPTTSSIESSRGPFSTSQVSISGLSANGFGGADVYYPTDTSQGTFGAVAISPGYTARKSSMAWLASRLASQGFVVINIDTNTTSDQPASRGRQLLAALDQVTKDSRVANRIDPTRLAVVGHSMGGGGALEASRSRPSLQAAIPLTPWNTTKSFSGNQVPTLVVGAERDTVASVRSHAEPFYRSLPSAPGKAYLELAGASHFAPNTSNTTIAKHSIAWLKLFVDNDERYRQFVCPGPTSDRAVSDYQNTCSSFTP [DP053]
Reply: 42.7

Ask: Query: melting temperature; subject: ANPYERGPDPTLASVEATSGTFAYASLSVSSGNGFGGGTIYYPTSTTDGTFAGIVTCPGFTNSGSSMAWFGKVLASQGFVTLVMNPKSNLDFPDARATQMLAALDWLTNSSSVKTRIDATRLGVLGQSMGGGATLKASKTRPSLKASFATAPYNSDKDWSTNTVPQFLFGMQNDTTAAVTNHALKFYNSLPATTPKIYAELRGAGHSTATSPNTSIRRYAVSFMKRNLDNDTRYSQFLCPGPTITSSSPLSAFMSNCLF [DP080]
Reply: 63.1

Ask: Query: melting temperature; subject: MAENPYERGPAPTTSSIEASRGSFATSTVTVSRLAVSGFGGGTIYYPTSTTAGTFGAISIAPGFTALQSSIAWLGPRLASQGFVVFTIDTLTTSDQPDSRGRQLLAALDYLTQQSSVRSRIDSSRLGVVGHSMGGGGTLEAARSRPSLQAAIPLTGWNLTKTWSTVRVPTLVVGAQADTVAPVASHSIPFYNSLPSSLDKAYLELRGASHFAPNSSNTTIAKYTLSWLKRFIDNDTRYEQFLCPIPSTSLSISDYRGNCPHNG [TEP182]
Reply: 53.5

Ask: Query: melting temperature; subject: ADNPYERGPAPTTASIEAVRGPYAVSEYRVSSLAATGFGGGTIHYPTTTADGTFGAIAVSPGYTGTESTIAWLGPRLASQGFVVFTIETLTLFDQPDSRGRQLLAALDHLTRVSPLRGRVDSSRLGVMGHSMGGGGSLEAAKSRPSLQAAVPLTPWNLDKTWPELRTPTLVVGADGDSIAPVRSHAEPFYESLPSSLDRAYLELNGASHFAPNSPDTTIAKYSIAWLKRFIDNDTRYEQFLCPLPRPSLTIEEYRGNCPHTS [TEP138]
Reply: 36.1

Ask: Query: melting temperature; subject: ATYERGPAPTAQSIVADGPFSYATVAVPTQSSFGGGTIYYPTDTNQGTFGAVAVIPGFVGSLDNVAWIGSRLASHGFVVFTVATTNPFAFPGDRAAQLQAALTYLTQSSSVRDRVDPNRLAVAGHSMGGGGALEAVRNNPALKAAVALQPWDFGQNFSAIAVPSMIVGAQNDQVATVTSHSEPFYDQIPAGAEKAYLELAGAGHDAGQSVSNATQAGSMLSWLKRYVDEDTRYEQFLCPAPSGPSVAEYRDTCPA [DP045]
Reply: 45.7

Ask: Query: melting temperature; subject: GSLAHIVMVDAYKPTKGSGASQTNPYARGPNPTAASLEASAGPFTVRSFTVSRPSGYGAGTVYYPTNAGGTVGAIAIVPGYTARQSSIKWWGPRLASHGFVVITIDTNSTFDYPSSRSSQQMAALRQVASLNGDSSSPIYGKVDTARMGVMGHSMGGGASLRSAANNPSLKAAIPQAPWDSQTNFSSVTVPTLIFACENDSIAPVNSHALPIYDSMSRNAKQFLEINGGSHSCANSGNSNQALIGKKGVAWMKRFMDNDTRYSTFACENPNSTAVSDFRTANCSLEGSGGSGAHIVMVDAYKPTK [TEP004]
Reply: 73.9

Ask: Query: melting temperature; subject: ADNPYQRGPDPTAASIAAVTGPFATASVTVPRGNGFGGGVIYYPTDTSQGTFGGIAISPGLNGTWPGIAWLGPRLASQGFVVFGIETNNLNDSPTSRGTQLLAALDYLTGSSSVRTRVDAGRLAVAGHSMGGGGALDAALRRPSLRATIGNAPHLPSGSLANDRVPTLIYAMQNDTLVPPSRLTSLYNTVPATTERGYLEITGAGHNYIGQPSTILARTMIPWLKIFVDDDARYSQFLCPLTDRSGISQYQSSCPLITTSPTTGPTAQPTTAAPTTTPTTPPVGGPCEATHRTVNSWSGGYQGEVTVRAGSAAINGWTVSWTLGSGQTINQVWGGALTASGTAATVRNETWNGPVAAGASTTFGYIATGNAPTQPLACSAR [ESM060]
Reply: 58.6

Ask: Query: melting temperature; subject: ADNPYQRGPDPTRTSVATERGPFANTSVSVPSGYGFNGGRIYYPTDTSQGTFGAIAISPGYTALFSAELAWMGPWLASHGFVVIGIETNSRNDFDTARGTQLLAALDYLTQQSPVRDRIDPNRLAVSGHSMGGGGALSAAMRRSSLKAVVGIAPYSPSSNLANDRVPTMIFSGQADTVVTPSYAMGLYNSIPAGTKSAYLEVAGGDHGFMVGRSNPVLIRTMLPFLKIFIDNDARYSQFLCPLLDNSGVVTYRSTCPFLPTTPTTPPPTG [ESM065]
Reply: 67.9
